Entry source: patent US12116343B2

Give measured pIC50 for each item. Keep answers brief.
Biological target: APOL1 G1 Protein (Homo sapiens, UniProt O14791, I384M/S342G)
Sequence (O14791 28-398 S342G/I384M): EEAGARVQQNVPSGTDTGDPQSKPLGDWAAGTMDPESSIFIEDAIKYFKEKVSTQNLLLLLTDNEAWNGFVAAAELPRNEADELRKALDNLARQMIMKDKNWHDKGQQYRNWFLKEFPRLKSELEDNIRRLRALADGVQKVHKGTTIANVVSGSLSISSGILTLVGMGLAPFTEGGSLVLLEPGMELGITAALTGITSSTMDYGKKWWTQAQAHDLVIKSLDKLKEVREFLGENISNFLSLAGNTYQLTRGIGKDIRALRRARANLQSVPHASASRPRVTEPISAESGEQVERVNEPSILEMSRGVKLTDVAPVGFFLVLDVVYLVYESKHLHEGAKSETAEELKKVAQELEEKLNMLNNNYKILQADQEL
Experiment: Trypanosoma brucei brucei lysis assay using APOL1 recombinant protein (AlamarBlue viability)
Type: cell-based
Conditions: Trypanosoma brucei brucei lysis, recombinant APOL1, AlamarBlue; read-out: Trypanosoma Assay (IC50)
pIC50: −log10 of the molar value.

Lookup result for CC1(C)CN(C(=O)[C@H]2C[C@H](c3c(-c4ccc(F)cc4)[nH]c4c(F)cc(F)cc43)C2)CC1O (some centres unmarked) [Compound 102] ; measured pIC50: < 6.00

Lookup result for O=C([C@H]1C[C@H](c2c(-c3ccc(F)cc3)[nH]c3c(F)cc(F)cc32)C1)N(CCOCCO)C1CCC1 [Compound 121] ; measured pIC50: < 6.00

Lookup result for O=C([C@H]1C[C@H](c2c(-c3ccc(F)cc3)[nH]c3c(F)cc(F)cc32)C1)N1CCO[C@H](CO)C1 [Compound 118] ; measured pIC50: < 6.00

Lookup result for NC(=O)C1CCCCN1C(=O)[C@H]1C[C@H](c2c(-c3ccc(F)cc3)[nH]c3c(F)cc(F)cc32)C1 (some centres unmarked) [Compound 92] ; measured pIC50: 6.00 to 6.60

Lookup result for O=C([C@H]1C[C@H](c2c(-c3ccc(F)cc3)[nH]c3c(F)cc(F)cc32)C1)N1CC[C@H]1CO [Compound 206] ; measured pIC50: > 6.60

Lookup result for C[C@@H](CO)NC(=O)[C@H]1C[C@H](c2c(-c3ccc(F)cc3)[nH]c3c(F)cc(F)cc32)C1 [Compound 200] ; measured pIC50: > 6.60

Lookup result for O=C(NCC1CCOCC1)[C@H]1C[C@H](c2c(-c3ccc(F)cc3)[nH]c3c(F)cc(F)cc32)C1 [Compound 42] ; measured pIC50: < 6.00

Lookup result for O=C(NC[C@H](O)CO)[C@H]1C[C@H](c2c(-c3ccc(F)cc3)[nH]c3c(F)cc(F)cc32)C1 [Compound 225] ; measured pIC50: 6.00 to 6.60

Lookup result for CC(NC(=O)[C@H]1C[C@H](c2c(-c3ccc(F)cc3)[nH]c3c(F)cc(F)cc32)C1)c1ccn[nH]1 (mixture of isomers) [Compound 81] ; measured pIC50: 6.00 to 6.60

Lookup result for CN(CC1(CO)CC1)C(=O)[C@H]1C[C@H](c2c(-c3ccc(F)cc3)[nH]c3c(F)cc(F)cc32)C1 [Compound 49] ; measured pIC50: < 6.00

Lookup result for O=C(NC1(CO)CCC1)[C@H]1C[C@H](c2c(-c3ccc(F)cc3)[nH]c3c(F)cc(F)cc32)C1 [Compound 6] ; measured pIC50: > 6.60

Lookup result for O=C([C@H]1C[C@H](c2c(-c3ccc(F)cc3)[nH]c3c(F)cc(F)cc32)C1)N(CCO)c1cnccn1 [Compound 132] ; measured pIC50: < 6.00

Lookup result for O=C(N[C@H]1CC[C@@H]1O)[C@H]1C[C@H](c2c(-c3ccc(F)cc3)[nH]c3c(F)cc(F)cc32)C1 [Compound 178] ; measured pIC50: 6.00 to 6.60

Lookup result for CC(CO)NC(=O)[C@H]1C[C@H](c2c(-c3ccc(F)cc3)[nH]c3c(F)cc(F)cc32)C1 (mixture of isomers) [Compound 13] ; measured pIC50: > 6.60

* * *

Target: APOL1 G1 Protein (Homo sapiens, UniProt O14791, I384M/S342G)
Sequence (O14791 28-398 S342G/I384M): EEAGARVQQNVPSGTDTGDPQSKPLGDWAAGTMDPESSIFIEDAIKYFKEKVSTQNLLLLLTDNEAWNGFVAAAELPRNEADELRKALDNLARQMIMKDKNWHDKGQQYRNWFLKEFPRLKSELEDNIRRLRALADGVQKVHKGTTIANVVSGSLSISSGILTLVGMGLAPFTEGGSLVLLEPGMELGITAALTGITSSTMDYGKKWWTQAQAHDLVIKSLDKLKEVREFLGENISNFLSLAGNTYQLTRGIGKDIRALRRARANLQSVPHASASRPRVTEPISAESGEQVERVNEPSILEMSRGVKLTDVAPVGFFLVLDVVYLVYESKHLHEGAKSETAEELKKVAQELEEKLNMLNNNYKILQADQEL
Experiment: Trypanosoma brucei brucei lysis assay using APOL1 recombinant protein (AlamarBlue viability)
Assay type: cell-based
Settings: Trypanosoma brucei brucei lysis, recombinant APOL1, AlamarBlue; read-out: Trypanosoma Assay (IC50)
Text: Trypanosoma brucei brucei is a blood stream parasite to which human, gorillas and baboon are immune due to the presence of the APOL1 protein in their HDL particles. […] Briefly, the AlamarBlue active compound, the resazurin, a blue, water soluble, non-toxic and cell permeable molecule, which can be followed by absorbance, is reduced by various metabolic pathways into resorufin, a red compound which can be followed by either absorbance or fluorescence. […]
Give measured IC50 for each item. Keep answers brief.

Lookup result for CCOCC1(CNC(=O)[C@H]2C[C@H](c3c(-c4ccc(F)cc4)[nH]c4c(F)cc(F)cc43)C2)CC1 ; measured IC50: > 1000 nM

Lookup result for CC[C@@H](CO)NC(=O)[C@H]1C[C@H](c2c(-c3ccc(F)cc3)[nH]c3c(F)cc(F)cc32)C1 ; measured IC50: < 250 nM

Lookup result for O=C(NCC1(O)CC1)[C@H]1C[C@H](c2c(-c3ccc(F)cc3)[nH]c3c(F)cc(F)cc32)C1 ; measured IC50: 250 to 1000 nM

Lookup result for O=C([C@H]1C[C@H](c2c(-c3ccc(F)cc3)[nH]c3c(F)cc(F)cc32)C1)N1C[C@@H](CO)OCC12CC2 ; measured IC50: > 1000 nM

Lookup result for NC(=O)C1CC(c2c(-c3ccc(F)cc3)[nH]c3c(F)cc(F)cc23)C1 (stereo not shown) ; measured IC50: 250 to 1000 nM

Lookup result for O=C(NCC1(O)CCCC1)[C@H]1C[C@H](c2c(-c3ccc(F)cc3)[nH]c3c(F)cc(F)cc32)C1 ; measured IC50: > 1000 nM

Lookup result for CC1(CO)CCN1C(=O)[C@H]1C[C@H](c2c(-c3ccc(F)cc3)[nH]c3c(F)cc(F)cc32)C1 (mixture of isomers) ; measured IC50: < 250 nM

Lookup result for O=C([C@H]1C[C@H](c2c(-c3ccc(F)cc3)[nH]c3c(F)cc(F)cc32)C1)N1CCOC(O)C1 (stereo partly shown) ; measured IC50: < 250 nM

Lookup result for Cn1ccc(CNC(=O)[C@H]2C[C@H](c3c(-c4ccc(F)cc4)[nH]c4c(F)cc(F)cc43)C2)n1 ; measured IC50: < 250 nM

Lookup result for C#CC(CO)NC(=O)[C@H]1C[C@H](c2c(-c3ccc(F)cc3)[nH]c3c(F)cc(F)cc32)C1 (stereo partly shown) ; measured IC50: < 250 nM

Lookup result for NC(=O)[C@H]1CCN(C(=O)[C@H]2C[C@H](c3c(-c4ccc(F)cc4)[nH]c4c(F)cc(F)cc43)C2)C1 ; measured IC50: > 1000 nM

Lookup result for O=C(NC1CCOC1)[C@H]1C[C@H](c2c(-c3ccc(F)cc3)[nH]c3c(F)cc(F)cc32)C1 (stereo partly shown) ; measured IC50: 250 to 1000 nM

Lookup result for CC(C)(O)C(O)CNC(=O)[C@H]1C[C@H](c2c(-c3ccc(F)cc3)[nH]c3c(F)cc(F)cc32)C1 (stereo partly shown) ; measured IC50: > 1000 nM

Lookup result for O=C([C@H]1C[C@H](c2c(-c3ccc(F)cc3)[nH]c3c(F)cc(F)cc32)C1)N1CCC[C@@H]1CO ; measured IC50: < 250 nM

Lookup result for CNC(=O)C(C)NC(=O)[C@H]1C[C@H](c2c(-c3ccc(F)cc3)[nH]c3c(F)cc(F)cc32)C1 (mixture of isomers) ; measured IC50: 250 to 1000 nM

Lookup result for O=C1NCCC1CNC(=O)[C@H]1C[C@H](c2c(-c3ccc(F)cc3)[nH]c3c(F)cc(F)cc32)C1 (stereo partly shown) ; measured IC50: > 1000 nM

Lookup result for O=C([C@H]1C[C@H](c2c(-c3ccc(F)cc3)[nH]c3c(F)cc(F)cc32)C1)N1CCCCC1CCO (stereo partly shown) ; measured IC50: > 1000 nM

Lookup result for CC(CO)N1CCN(C(=O)[C@H]2C[C@H](c3c(-c4ccc(F)cc4)[nH]c4c(F)cc(F)cc43)C2)CC1 (mixture of isomers) ; measured IC50: > 1000 nM

Lookup result for O=C(O)CNC(=O)[C@H]1C[C@H](c2c(-c3ccc(F)cc3)[nH]c3c(F)cc(F)cc32)C1 ; measured IC50: > 1000 nM

Lookup result for Cn1cnc(CNC(=O)[C@H]2C[C@H](c3c(-c4ccc(F)cc4)[nH]c4c(F)cc(F)cc43)C2)c1 ; measured IC50: < 250 nM

Lookup result for CN1CCN(C(=O)CNC(=O)[C@H]2C[C@H](c3c(-c4ccc(F)cc4)[nH]c4c(F)cc(F)cc43)C2)CC1 ; measured IC50: > 1000 nM

Lookup result for N#CC(CO)NC(=O)[C@H]1C[C@H](c2c(-c3ccc(F)cc3)[nH]c3c(F)cc(F)cc32)C1 (stereo partly shown) ; measured IC50: < 250 nM

Lookup result for CN1CCC(NC(=O)[C@H]2C[C@H](c3c(-c4ccc(F)cc4)[nH]c4c(F)cc(F)cc43)C2)C1=O (stereo partly shown) ; measured IC50: 250 to 1000 nM

Lookup result for COC[C@@H]1CCN1C(=O)[C@H]1C[C@H](c2c(-c3ccc(F)cc3)[nH]c3c(F)cc(F)cc32)C1 [Compound 222] ; measured IC50: < 250 nM

Lookup result for O=C([C@H]1C[C@H](c2c(-c3ccc(F)cc3)[nH]c3c(F)cc(F)cc32)C1)N1CC[C@H](CO)C1 ; measured IC50: > 1000 nM

Lookup result for CC(O)CN(C)C(=O)[C@H]1C[C@H](c2c(-c3ccc(F)cc3)[nH]c3c(F)cc(F)cc32)C1 (stereo partly shown) ; measured IC50: 250 to 1000 nM

Lookup result for O=C([C@H]1C[C@H](c2c(-c3ccc(F)cc3)[nH]c3c(F)cc(F)cc32)C1)N1CCN[C@H](CO)C1 ; measured IC50: 250 to 1000 nM

Lookup result for CS(=O)(=O)NC(=O)[C@H]1C[C@H](c2c(-c3ccc(F)cc3)[nH]c3c(F)cc(F)cc32)C1 ; measured IC50: > 1000 nM
